Reference source for all entries: ChEMBL document CHEMBL3988442

Tested on: Leishmania donovani
Assay: Leishmania intramacrophage assay
Type: functional, organism-based
Design: scale not given: in the data most compounds retested in dose-response had high values
Settings: 30.3 µM; […]
Screen size: about 69,000 compounds; about 1,000 (1.4%) showed an effect of 50% or more. What follows is part of a selection rich in strong results, with near analogues and random picks from the rest.
Reported Percent Effect values for the following compounds.
readout.kind: Percent Effect (%)

1) CN1CCC(c2n[nH]cc2-c2ccnc(N)c2)C1 (stereo unspecified)	52.81
2) CC(C)N1CCC(c2n[nH]cc2-c2ccnc(N)c2)C1 (stereo unspecified)	28.17
3) CC(=O)N1CCC(c2n[nH]cc2-c2ccnc(N)c2)C1 (stereo unspecified)	29.98
4) CC(C)Nc1cc(-c2c[nH]nc2C2CCN(C(=O)C3CC3)C2)ccn1 (stereo unspecified)	49.22
5) CC(C)Nc1cc(-c2c[nH]nc2C2CCN(C(=O)C3CCC3)C2)ccn1 (stereo unspecified)	63.06
6) Cc1c[nH]nc1C1CCN(C(=O)C2CCCC2)C1 (stereo unspecified)	-28.74
7) CCCNc1cc(-c2c[nH]nc2C2CCN(C(=O)C3CCC3)C2)ccn1 (stereo unspecified)	53.3
8) Cc1nc2cc(CNC(=O)C3CC(=O)N(CCN(C)C)C3)ccc2n1C (stereo unspecified)	7.725
9) Nc1cc(-c2c[nH]nc2C2CCN(C(=O)C3CCCC3)C2)ccn1 (stereo unspecified)	42.83
10) Nc1cc(-c2c[nH]nc2C2CCCCN2C(=O)C2CCCC2)ccn1 (stereo unspecified)	12.99
11) CCN1CC(C(=O)NCc2ccc3c(c2)nc(C)n3C)CCC1=O (stereo unspecified)	73.45

###

Test system: Leishmania donovani
Assay: Leishmania intramacrophage assay
Type: functional, organism-based
Set-up: scale not given: in the data most compounds retested in dose-response had high values
Conditions: 30.3 µM; […]
The campaign covered roughly 69,000 compounds. About 1,000 (1.4%) showed an effect of 50% or more. For the sample, strong results were picked, then their nearest neighbours and some compounds at random.
Rule: Percent Effect below 20% gives criterion met, anything at or above gives criterion not met.

1) CCc1nc2c(N3CCC4(CC3)CNC(=O)C4)ncnc2o1	criterion met
2) O=C(NC[C@]12COC[C@H]1CN(Cc1cccc(F)c1)C2)c1ccco1	criterion not met
3) COCC(=O)N(Cc1cccc(C)c1)Cc1ccccc1OC	criterion not met
4) Cc1nnsc1C(=O)NCC1CCN(c2ccccn2)CC1	criterion not met
5) Cc1cc(C(=O)NC2CC(=O)N(C(C)C)C2=O)c(C)n1C(C)C (stereo unspecified)	criterion met
6) CN[C@@H](C)C(=O)N(Cc1cccc(C)c1)Cc1ccccc1OC	criterion not met
7) CCc1nc2c(N3CCC4(CC3)CC(=O)N(CC(C)C)C4)ncnc2o1	criterion not met
8) CC(=O)NCCNCc1cn(CCN2CCSCC2)nc1C	criterion not met
9) Cc1ccc(C)c(Oc2cc(-n3nc(C)c(C#N)c3N)nc(C)n2)c1	criterion met
10) CCC(C)N(Cc1cccnc1)Cc1cc2c(cc1OC)OCO2 (stereo unspecified)	criterion met
11) Cn1cc(CN2C[C@@H]3COC[C@]3(CNC(=O)c3ccco3)C2)cn1.O=C(O)C(F)(F)F	criterion met

###

System: Leishmania donovani
Assay: Leishmania intramacrophage assay
Assay type: functional, organism-based
Design: scale not given: in the data most compounds retested in dose-response had high values
Conditions: 30.3 µM; […]
The campaign covered roughly 69,000 compounds. About 1,000 (1.4%) showed an effect of 50% or more. This excerpt belongs to a sample that is enriched for strong results.
readout.kind: Percent Effect (%)

1. CC1(NC(=O)Cc2cccs2)CCS(=O)(=O)C1 (stereo unspecified)	19.51
2. CCn1nccc1CN(C)C(=O)Cn1nc(C)cc1C	19.68
3. Cn1cncc1CN1CCCC1c1cncc(Oc2ccc(Cl)cc2)n1 (stereo unspecified)	60.52
4. COc1cccc(CN2C[C@@H]3COC[C@]3(CNC(=O)C3CC3)C2)c1.O=C(O)C(F)(F)F	43.72
5. N#Cc1cc2c(=O)n(CC(O)c3cccc(O)c3)ccc2[nH]c1=O (stereo unspecified)	52.32
6. CCn1nccc1CN(C)C(=O)Cn1cc2c(n1)c(C)nn2CC	72.98
7. N#Cc1cc2c(=O)n(CC(O)C(F)(F)F)ccc2[nH]c1=O (stereo unspecified)	28.06
8. CNC[C@H]1CC[C@H](c2cc(CN(C)S(=O)(=O)N(C)C)n(C)n2)CC1.Cl	29.88
9. CCN1CCN(C(=O)c2cc(-c3cccs3)cs2)CC1	-1.143
10. Cc1ncccc1Oc1cncc(C2CCCN2Cc2cncn2C)n1 (stereo unspecified)	19.44
11. N#Cc1cc2c(=O)n(CC(O)Cc3ccccc3)ccc2[nH]c1=O (stereo unspecified)	33.38
